tested on: UO-31 renal; assay: NCI tumour cell line growth inhibition, 48 h
Measured TGI accompanies every entry in the list below.
Measure: TGI

Compound: CCN(CC)CCC(=O)Nc1ccc2c(c1)C(=O)c1ccc(NC(=O)CCN(CC)CC)cc1C2=O
Readout Value: > 100 µM
--
Compound: O=C1/C(=C/c2cccc([N+](=O)[O-])c2)COc2ccc(O)cc21
Readout Value: 2.93 µM
--
Compound: COc1ccc(/C=C2\CCC(C)C3=C2NC(=S)NC3c2ccc(OC)c(OC)c2)cc1OC (stereo unspecified)
Readout Value: > 31.6 µM
--
Compound: COc1cc(CNc2cnc3cc(N)cc(N)c3n2)cc(OC)c1
Readout Value: > 100 µM
--
Compound: Clc1cc(OC2C3CC4CC(C3)CC2C4)nc(Cl)n1 (stereo unspecified)
Readout Value: 10.8 µM
--
Compound: O=C(/C=C/c1ccccc1)NC1C=Nc2ccc(Cl)cc2NC1=O (stereo unspecified)
Readout Value: 87.8 µM

* * *

test system: SN12C renal; experiment: NCI tumour cell line growth inhibition, 48 h; in the data active means GI50 below about 0.43 µM; inactive means the rest
Outcome codes: active, inactive

Molecule: CC/C=C\CCC/C=C1/C(=O)C=C[C@@H]1C/C=C\CCCC(=O)OC
Cat: inactive
//
Molecule: COc1ccc(-c2nc3sccn3c2/C(N)=N/C(=N)N)cc1OC
Cat: inactive
//
Molecule: OCc1ccc(N2CCC2c2ccc(F)cc2)cc1Cl (configuration not stated)
Cat: inactive
//
Molecule: COc1cc(CNc2cnc3cc(N)cc(N)c3n2)cc(OC)c1
Cat: inactive
//
Molecule: CC(C)CCC[C@@H](C)[C@H]1CC[C@H]2[C@@H]3CC=C4C[C@@H](C(C(=O)O)C(=O)O)CC[C@]4(C)[C@H]3CC[C@]12C
Cat: active
//
Molecule: Cc1ccc(NC2=C(Cl)C(=O)N(Cc3ccccc3)C2=O)cc1O
Cat: inactive
//
Molecule: O=C(/C=C/C12c3ccccc3C(c3ccccc31)C1C(=O)NC(=O)C12)c1ccncc1 (configuration not stated)
Cat: inactive
//
Molecule: COc1ccc2c(C3=C(c4cn(C)c5ccccc45)C(=O)NC3=O)cn(C)c2c1
Cat: active
//
Molecule: CCCNC1=C2CC(C)CC(OC)[C@@H](O)[C@H](C)/C=C(\C)C(OC(N)=O)C(OC)/C=C\C=C(/C)C(=O)NC(=CC1=O)C2=O (some centres not stated)
Cat: active
//
Molecule: CC1(C)CCc2c(c3c(c4c(=O)c(O)c(-c5ccc(O)cc5)oc24)OC(C)(C)CC3)O1
Cat: inactive
//
Molecule: COc1cc(-c2nn(-c3ccc(NC(=O)c4ccc(Cl)c(C(F)(F)F)c4)cc3)cc2-c2ccncc2)ccc1Cl
Cat: inactive
//
Molecule: O=C1CC(c2ccc3c(c2)OCO3)Nc2ccccc21 (configuration not stated)
Cat: inactive

* * *

test system: RXF 393 renal; assay: NCI tumour cell line growth inhibition, 48 h
Measure: TGI

Compound: O=c1[nH]cc(N=Cc2cc(Cl)cc(Cl)c2O)c(=O)[nH]1
Readout Value: > 100 µM
--
Compound: COC1CCC2C(NS(=O)(=O)c3ccc(C)cc3)CCCC2O1 (stereo not drawn) (tested in a mixture with another compound)
Readout Value: > 34.5 µM
--
Compound: CN(C)C(=N)c1ccccc1
Readout Value: > 100 µM
--
Compound: COc1cc2c(cc1OC)-c1c3cc(O)ccc3nn[n+]1CC2
Readout Value: > 100 µM
--
Compound: Cc1ccccc1-n1c(=O)c2ncn(CCCl)c2n(-c2ccccc2C)c1=S
Readout Value: > 100 µM
--
Compound: COc1cc([C@@H]2c3cc4c(cc3[C@@H](Nc3ccc([N+](=O)[O-])cc3C(=O)c3ccccc3)[C@H]3COC(=O)[C@H]23)OCO4)cc(OC)c1OC
Readout Value: > 100 µM
--
Compound: Cc1ccc(N=Nc2ccc(N(CCC#N)CCC#N)cc2C)c(Br)c1
Readout Value: 46.1 µM
--
Compound: CC[C@@]1(O)C(=O)OCc2c1cc1n(c2=O)Cc2c-1nc1ccccc1c2/C=N\NC(=O)CN
Readout Value: 7.66 µM
--
Compound: COC1=CC(=O)c2nc(-c3ccncc3)[nH]c2C1=O
Readout Value: > 100 µM
--
Compound: Nc1cccc2cc(Cl)cnc12
Readout Value: > 100 µM
--
Compound: COc1ccc(C(=O)Cn2c(C(=O)c3ccccc3)nc(-c3ccc(OC)cc3)c2-c2ccc(OC)cc2)cc1
Readout Value: 49.2 µM
--
Compound: O=C1C(Cl)=C(Nc2cccc(Cl)c2)C(=O)N1Cc1ccc(Cl)cc1Cl
Readout Value: 3.83 µM
--
Compound: CC1=CC2C(O1)C1C(=O)C=CC(=O)C1=CC2[N+](=O)[O-] (stereo not drawn)
Readout Value: 28.2 µM

The measurements presented in this section are drawn from PubChem BioAssay (NCI).
